Would you kindly list GI50 for each of these molecules?
Test system: 786-0
assay.notes: NCI tumour cell line growth inhibition, 48 h
The source made the active and inactive calls. Rule as the data show it: active = GI50 up to about 1.1 µM and inactive = higher.

Entry COc1ccc(-n2cnc3c(NC(Cc4ccccc4)C(=O)O)ncnc32)cc1 (stereo unspecified) , GI50 reported as > 100 µM (inactive)

The measured GI50 associated with c1csc(-c2cscc2-c2cccs2)c1 reads 43.6 µM (inactive)

The recorded GI50 for entry CCOC(=O)c1ccc(-c2cc(C)[nH]n2)[nH]1 equals > 100 µM (inactive)

In plain terms, NCCSS(=O)(=O)CCN has a documented GI50 of > 100 µM (inactive)

What the record says about CN(C)CCNCc1ccc2c(-c3ccccc3)nc3cc(Cl)c(Cl)cc3n12 : GI50 is 5.96 µM (inactive)

Documented GI50 of CCOC(=O)c1nnsc1NC(=O)Nc1ccc(Cc2ccc(NC(=O)Nc3snnc3C(=O)OCC)cc2)cc1 : 18.2 µM (inactive)
